- assay protocol: TOX21_p53_BLA_p2_viability: Viability Assessment in the Tox21 HCT-116 p53 Agonism Beta-lactamase Assay, Phase 2 (AID 2283591);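 also: compound exposure lasted 16 h at 37 °C; actives lower the ATP signal meaning cytotoxicity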
Records with an inconclusive call do not appear. The source made the active and inactive calls. The calls were made as follows: active = hit-call score of the fitted dose curve at least 0.9, where 1 is the maximum; inconclusive = response in the unintended direction; inactive = score below 0.9.
Pick one: active, inactive

Below are worked cases with known answers.
O=C(CCCN1CCC(O)(c2ccc(Cl)cc2)CC1)c1ccc(F)cc1 = inactive
CCCCCCCCCCCCCCCCCC[N+](C)(C)Cc1ccccc1 = active
CC(=O)Nc1ccc(S(N)(=O)=O)cc1 = inactive
c1ccc(CNc2ncnc3c2ncn3C2CCCCO2)cc1 (configuration not stated) = inactive
Oc1c(Cl)ccc(Cl)c1Cl = inactive

Input: Please indicate how the test categorized CC(O)COc1ccccc1 (configuration not stated) .
Output: inactive

Input: Please indicate how the test categorized O=C1c2ccccc2C(=O)c2c(O)c(O)cc(O)c21 .
Output: inactive

====

- Read-out: matrix metalloproteinase-10 (MMP10), MMP10 (gene 4319)
- assay protocol: LTEA_HepaRG_MMP10: Life Technologies and Expression Analysis (LTEA) Assay for matrix metalloproteinase-10 (MMP10) using HepaRG (AID 2283517)
- condition: mRNA level, 48 h; actives raise or lower the signal
- Protocol: LTEA_HepaRG is a cell based, multiplexed-readout assay that uses HepaRG, a human liver cell line, with measurements taken at 48 hours after chemical dosing on a 96-well plate.LTEA_HepaRG_MMP10 is one of 102 assay component(s) measured in the LTEA HepaRG cell culture assay. It is a marker of Fibrosis.Data from the assay component LTEA_HepaRG_MMP10 was analyzed into 1 endpoint. […]
Activity calls are given as the source filed them. Rule for the calls: active = hit-call score of the fitted dose curve at least 0.9, where 1 is the maximum; inactive = score below 0.9.
Pick one: active, inactive

Below are worked cases with known answers.
CCCCCCCCCCCCOS(=O)(=O)O = active
CCCCC(CC)C(=O)O (stereo unspecified) = inactive
O=C1NS(=O)(=O)c2ccccc21 = inactive
CCC(C)c1ccccc1O (stereo unspecified) = inactive
CS(=O)(=O)c1ccc([C@@H](CC2CCCC2)C(=O)Nc2cnccn2)cc1Cl = active

Input: Please indicate how the test categorized CC(=O)Nc1ccc(O)cc1 .
Output: inactive

Input: Please indicate how the test categorized OCC(CO)(CBr)CBr .
Output: inactive

Input: Please indicate how the test categorized CN(C)CCOC(c1ccccc1)c1ccccc1 .
Output: inactive

Input: Please indicate how the test categorized O=C(CCCN1CCC(O)(c2ccc(Cl)cc2)CC1)c1ccc(F)cc1 .
Output: active

Input: Please indicate how the test categorized O=C(c1ccccc1)c1ccccc1 .
Output: inactive

Input: Please indicate how the test categorized CN(Cc1cnc2nc(N)nc(N)c2n1)c1ccc(C(=O)N[C@@H](CCC(=O)O)C(=O)O)cc1 .
Output: inactive

====

- experimental target: human Peripheral-type Benzodiazepine Receptor (PBR), TSPO (gene 706)
- assay protocol: NVS_MP_hPBR: NovaScreen (NVS) Membrane Protein Assay for human Peripheral-type Benzodiazepine Receptor (PBR) (AID 2283331);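 also: hits reduce radioligand binding relative to DMSO baseline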
- Method: NVS_MP_hPBR is a biochemical, single-readout assay that uses extracted gene-proteins from Human colonic cell membranes in a tissue-based cell-free assay. Measurements were taken 1 hour after chemical dosing in a 48-well plate.NVS_MP_hPBR is one of one assay component(s) measured or calculated from the NVS_MP_hPBR assay. […] This assay endpoint, NVS_MP_hPBR, was analyzed in the positive analysis fitting direction relative to DMSO as the negative control and baseline of activity. […]
Results filed as inconclusive are left out. The source made the active and inactive calls. The calls were made as follows: active = hit-call score of the fitted dose curve at least 0.9, where 1 is the maximum; inconclusive = response in the unintended direction; inactive = score below 0.9.
Pick one: active, inactive

Below are worked cases with known answers.
CN(Cc1cnc2nc(N)nc(N)c2n1)c1ccc(C(=O)N[C@@H](CCC(=O)O)C(=O)O)cc1 = inactive
C/C=C/C(=O)C1=C(C)CCCC1(C)C = active
CC(C)c1c(C(=O)Nc2ccccc2)c(-c2ccccc2)c(-c2ccc(F)cc2)n1CC[C@@H](O)C[C@@H](O)CC(=O)O = active
CCCCc1oc2ccccc2c1C(=O)c1cc(I)c(OCCN(CC)CC)c(I)c1 = active

Let us examine a further case.
Input: Please indicate how the test categorized CCCCC(CC)C(=O)OCCOCCOCCOCCOC(=O)C(CC)CCCC (stereo not given) .
Output: active

The measured values listed here are drawn from PubChem BioAssay (EPA / NIEHS).
